// data source = ChEMBL document CHEMBL3132756

Can you tell me inhibition for the items I'm about to list?
# Tgt: Signal transducer and activator of transcription 3 (Homo sapiens)
# Protocol Text: Inhibition of STAT3 (unknown origin) expressed in human HCT116 cells at 2 uM by dual luciferase assay
# Format: cell-based
# Test Parameters: HCT-116
Write the quantity with the unit trailing the number.

Answer with the recorded inhibition of CCNCCCCN1N=C2c3ccccc3CCC2CC1=O (centres undefined) only.
3%

Recall and state the measured inhibition for CCOC(=O)CCCCN1N=C2c3ccccc3CCC2CC1=O (centres undefined) .
21%

Give the measured inhibition for CCOC(=O)CCCN1N=C2c3ccccc3CC2CC1=O (centres undefined)
28%

Tell me its inhibition given CCOC(=O)CCN1N=C2c3ccccc3CCC2CC1=O (centres undefined) as the entry.
30%

Please give the documented inhibition of CCOC(=O)CN1N=C2c3ccccc3CCC2CC1=O (centres undefined)
3%

Report inhibition for CCCCCN1N=C2c3ccccc3CCC2CC1=O (centres undefined)
22%

Report inhibition for CCOC(=O)CCCN1N=C2c3ccccc3CCC2CC1=O (racemic)
46%

Please indicate inhibition recorded for O=C(O)CCCN1N=C2c3ccccc3CCC2CC1=O (centres undefined)
8%

Provide one value: measured inhibition of CCOC(=O)CCCCCN1N=C2c3ccccc3CCC2CC1=O (centres undefined)
25%

Identify the reported inhibition for the following entry. CCOC(=O)CCCN1N=C2c3cc(OC)cc(OC)c3CCC2CC1=O (centres undefined)
23%

Report inhibition for CCCCN1N=C2c3ccccc3CCC2CC1=O (centres undefined)
-9%

Return value of inhibition for input CCOC(=O)CCCN1N=C2c3ccc(Cl)cc3CCC2CC1=O (centres undefined) , no commentary.
9%

Quote inhibition reported for O=C1CC2CCc3ccccc3C2=NN1CCCc1nn[nH]n1 (centres undefined) please.
-9%

Return the recorded inhibition value; entry: O=C(O)CCN1N=C2c3ccccc3CCC2CC1=O (centres undefined)
-2%

Dear colleague, please send me the reported inhibition for O=C1CC2CCc3ccccc3C2=NN1 (centres undefined) when you can.
-6%

Fill in reported inhibition for this entry: C[C@H]1COC2=C1C(=O)C(=O)c1c2ccc2c1CCCC2(C)C
25%

Identify measured inhibition corresponding to CCOC(=O)CCCn1nc2c(cc1=O)CCc1ccccc1-2
1%

Check the records and state inhibition for CCOC(=O)CCCCCCN1N=C2c3ccccc3CCC2CC1=O (centres undefined)
22%

Return inhibition for the following compound: CCNC(=O)CCCN1N=C2c3ccccc3CCC2CC1=O (centres undefined)
16%
